test system: TC-71 (Ewing's Sarcoma); experiment: combination Emax (second highest fraction inhibited in the dose matrix, 72 h); higher = more inhibition; extreme values may be limits of the assay
Provide the recorded combination Emax for the entries that follow.

Task: State the measured combination Emax (TC-71 (Ewing's Sarcoma)) of CCN(CCO)CCCOc1ccc2c(Nc3cc(CC(=O)Nc4cccc(F)c4)[nH]n3)ncnc2c1 [AZD2811] + O=C(c1cc(Cc2n[nH]c(=O)c3ccccc23)ccc1F)N1CCN(C(=O)C2CC2)CC1 [Olaparib] (first compound max 1 µM, 7x7, partner max 10 µM)
Output: 0.755

Task: Provide combination Emax, system TC-71 (Ewing's Sarcoma), entry NC1(C(=O)N[C@@H](CCO)c2ccc(Cl)cc2)CCN(c2ncnc3[nH]ccc23)CC1 [Capivasertib] + CC(=O)c1c(C)c2cnc(Nc3ccc(N4CCNCC4)cn3)nc2n(C2CCCC2)c1=O [Palbociclib] (first compound max 10 µM, 7x7, partner max 10 µM)
Output: 0.511

Task: Look up TC-71 (Ewing's Sarcoma) data: combination Emax of Cc1c2c(nn1C)CSCc1cc(n(C)n1)CSc1cc(c3ccccc3c1)OCCCc1c(C(=O)O)n(C)c3c-2c(Cl)ccc13 [AZD5991] + C1CN(CCC1(C(=O)N[C@@H](CCO)C2=CC=C(C=C2)Cl)N)C3=NC=NC4=C3C=CN4 [Capivasertib] (first compound max 1 µM, 7x7, partner max 3 µM) , then report it.
Output: 0.47

Task: Provide combination Emax, tested on TC-71 (Ewing's Sarcoma), for Cc1cc2ncnn2cc1Nc1ncc2c(n1)n(C1CCOCC1)c(=O)n2C [AZD7648] + C[C@@H]1COCCN1C2=NC(=NC(=C2)C3(CC3)[S@](=N)(=O)C)C4=C5C=CNC5=NC=C4 [AZD6738] (first compound max 10 µM, 7x7, partner max 10 µM) .
Output: 0.835

Task: Lab note: TC-71 (Ewing's Sarcoma) assay, enter combination Emax for NC1(C(=O)N[C@@H](CCO)c2ccc(Cl)cc2)CCN(c2ncnc3[nH]ccc23)CC1 [Capivasertib] + COc1nnc2ccc(N3CCC(c4ccc(OCCN5CCN(C)C(=O)[C@H]5C)cc4)CC3)nn12 [AZD5153] (first compound max 10 µM, 7x7, partner max 1 µM) here
Output: 0.797

Task: Specify combination Emax for CC1(C)CCC(CN2CCN(c3ccc(C(=O)NS(=O)(=O)c4ccc(NCC5CCOCC5)c([N+](=O)[O-])c4)c(Oc4cnc5[nH]ccc5c4)c3)CC2)=C(c2ccc(Cl)cc2)C1 [Venetoclax] + C[C@@H]1COCCN1C2=NC(=NC(=C2)C3(CC3)[S@](=N)(=O)C)C4=C5C=CNC5=NC=C4 [AZD6738] (first compound max 1 µM, 7x7, partner max 10 µM) , system TC-71 (Ewing's Sarcoma).
Output: 0.954

Task: Give TC-71 (Ewing's Sarcoma) combination Emax for the following compound: NC1(C(=O)N[C@@H](CCO)c2ccc(Cl)cc2)CCN(c2ncnc3[nH]ccc23)CC1 [Capivasertib] + CC(C)n1c(=O)n(C)c2cnc3cc(F)c(-c4ccc(OCCCN5CCCCC5)nc4)cc3c21 [AZD1390] (first compound max 10 µM, 7x7, partner max 0.3 µM)
Output: 0.263

Task: # lookup: TC-71 (Ewing's Sarcoma) combination Emax, key = C[C@@H](c1ccc2nccn2c1)n1nnc2ncc(-c3cnn(C)c3)nc21 [Savolitinib] + CN(CC[C@H](CSC1=CC=CC=C1)NC2=C(C=C(C=C2)S(=O)(=O)NC(=O)C3=CC=C(C=C3)N4CCC(CC4)[C@H](C5=CC=CC=C5C6=CC=C(C=C6)Cl)O)S(=O)(=O)C(F)(F)F)CCO [AZD4320] (first compound max 1 µM, 7x7, partner max 1 µM)
Output: 0.585
